- assayed-target: human PPARα (Homo sapiens)
- Construct: human PPARα (including amino acid residues 167-468); expressed in transfected cells; host or cells: COS-1
- Sequence (Q07869 167-468): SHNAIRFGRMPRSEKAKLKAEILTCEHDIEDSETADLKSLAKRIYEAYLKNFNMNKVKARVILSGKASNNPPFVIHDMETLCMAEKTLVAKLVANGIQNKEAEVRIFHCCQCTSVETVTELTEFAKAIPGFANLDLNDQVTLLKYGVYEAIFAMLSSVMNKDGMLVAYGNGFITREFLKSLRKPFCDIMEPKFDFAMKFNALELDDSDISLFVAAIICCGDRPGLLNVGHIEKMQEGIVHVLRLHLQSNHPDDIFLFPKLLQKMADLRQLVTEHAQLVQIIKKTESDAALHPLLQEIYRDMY
- test: GAL4-PPARα luciferase reporter assay in COS-1 cells
- Type: cell-based
- stated-conditions: relative luciferase activity, vehicle (DMSO) control regarded as 1, 24 hours
Recorded PPARα-agonistic activity (10 μM), one value per entry.
property-measured: PPARα-agonistic activity (10 μM)

- molecule: "Cc1ccc(C(=O)c2cccn2C/C=C/c2ccc(COCc3nnn[nH]3)cc2)cc1"
  observed: 17.7
- molecule: "CCC(OCc1cccc(/C=C/Cn2cccc2C(=O)c2ccc(C)cc2)c1)C(=O)O (stereo not shown)"
  observed: 8.6
- molecule: "Cc1ccc(C(=O)c2cccn2C/C=C/c2cccc(COC(C)(C)C(=O)O)c2)cc1"
  observed: 8.0
- molecule: "Cc1ccc(C(=O)c2cccn2C/C=C/c2cccc(CO[C@H](C)C(=O)O)c2)cc1"
  observed: 11.6

###

- assayed-target: human PPARγ (Homo sapiens)
- Construct: human PPARγ (including amino acids residue 204-505); expressed in transfected cells; host or cells: COS-1
- Sequence (P37231 204-505): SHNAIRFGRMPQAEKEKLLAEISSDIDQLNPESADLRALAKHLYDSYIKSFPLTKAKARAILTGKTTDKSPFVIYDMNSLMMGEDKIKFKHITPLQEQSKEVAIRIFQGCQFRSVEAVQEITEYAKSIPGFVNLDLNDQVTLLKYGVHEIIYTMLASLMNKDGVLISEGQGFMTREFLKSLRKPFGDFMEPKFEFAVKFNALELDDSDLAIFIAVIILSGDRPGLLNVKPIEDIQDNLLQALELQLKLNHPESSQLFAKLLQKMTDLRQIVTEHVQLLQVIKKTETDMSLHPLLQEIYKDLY
- test: GAL4-PPARγ luciferase reporter assay in COS-1 cells
- Assay type: cell-based
- stated-conditions: relative luciferase activity, vehicle (DMSO) control regarded as 1, 24 hours

- compound: "Cc1ccc(C(=O)c2cccn2C/C=C/c2cccc(COC(C)(C)C(=O)O)c2)cc1"
  PPARγ-agonistic activity (10 μM): 4.7
- compound: "Cc1ccc(C(=O)c2cccn2C/C=C/c2cccc(CO[C@@H](C)C(=O)O)c2)cc1"
  PPARγ-agonistic activity (10 μM): 2.9
- compound: "Cc1ccc(C(=O)c2cccn2C/C=C/c2cccc(COC(C(=O)O)c3ccccc3)c2)cc1 (stereo not drawn)"
  PPARγ-agonistic activity (10 μM): 5.6
- compound: "Cc1ccc(C(=O)c2cccn2C/C=C/c2ccc(COC(C)(C)C(=O)O)cc2)cc1"
  PPARγ-agonistic activity (10 μM): 7.5
- compound: "Cc1ccc(C(=O)c2cccn2C/C=C/c2ccc(COCc3nnn[nH]3)cc2)cc1"
  PPARγ-agonistic activity (10 μM): 8.9
- compound: "Cc1ccc(C(=O)c2cccn2C/C=C/c2cccc(COCC(=O)O)c2)cc1"
  PPARγ-agonistic activity (10 μM): 3.4
- compound: "Cc1ccc(C(=O)c2cccn2C/C=C/c2ccc(CO[C@H](C)C(=O)O)cc2)cc1"
  PPARγ-agonistic activity (10 μM): 5.5
- compound: "Cc1ccc(C(=O)c2cccn2C/C=C/c2cccc(CO[C@H](C)C(=O)O)c2)cc1"
  PPARγ-agonistic activity (10 μM): 5.4
- compound: "CCC(OCc1cccc(/C=C/Cn2cccc2C(=O)c2ccc(C)cc2)c1)C(=O)O (stereo not drawn)"
  PPARγ-agonistic activity (10 μM): 5.3
